B1: library; numbered along this chain (parent)
chain: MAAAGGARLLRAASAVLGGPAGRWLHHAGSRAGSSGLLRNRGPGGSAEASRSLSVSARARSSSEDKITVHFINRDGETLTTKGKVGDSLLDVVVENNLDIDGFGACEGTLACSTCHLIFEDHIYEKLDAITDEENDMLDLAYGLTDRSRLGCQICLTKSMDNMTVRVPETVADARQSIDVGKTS

- Variants of: B1
- assayProtocol: scaled log2 fold change in cell abundance, elesclomol vs control (0 = silent mean, 1 = nonsense mean) (scaled log2 ratio); higher = higher viability under elesclomol (loss of FDX1 cuproptosis function);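 note: variant abundance is its share of total variant reads in each endpoint sample, from next-generation sequencing of the integrated ORF PCR-amplified out of genomic DNA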
- settings: with ABC1 FDX1 KO; elesclomol 5 nM; glucose 10 mM; 14 days
// not satisfied strictly below 0.0002 in scaled log2 fold change; satisfied otherwise

Does S148K have a reported scaled log2 fold change of at least 0.0002?
satisfied

Tell me whether scaled log2 fold change is at least 0.0002 here: D179I
not satisfied

Does scaled log2 fold change meet or surpass 0.0002 for A4Q ?
not satisfied

Check this variant for scaled log2 fold change at or above 0.0002: A49C
satisfied

Tell me whether scaled log2 fold change is at least 0.0002 here: A105C
satisfied

Is scaled log2 fold change at least 0.0002? Consider T81M
not satisfied

Given L117S , state whether its scaled log2 fold change is at least 0.0002.
satisfied

Evaluate A3I : scaled log2 fold change at minimum 0.0002?
satisfied

// inclusive: scaled log2 fold change at least 0.0002? input: R31A
satisfied

Does scaled log2 fold change meet or surpass 0.0002 for D136L ?
satisfied

Given the entry K82C , answer whether its scaled log2 fold change meets or surpasses 0.0002.
satisfied

Check if scaled log2 fold change >= 0.0002 (inclusive). Item: V165Y
satisfied

Decide: is the reported value of scaled log2 fold change for L17C equal to or greater than 0.0002?
satisfied

Quick check, scaled log2 fold change >= 0.0002? R31G
satisfied

I'd appreciate it if you could say whether N40Q has scaled log2 fold change at least equal to 0.0002.
not satisfied

Item S63H with scaled log2 fold change of 0.0002 or above?
satisfied

Can G33H be said to have scaled log2 fold change at or above 0.0002?
satisfied

Record V171D ; criterion: scaled log2 fold change no lower than 0.0002. Met?
not satisfied

Reported scaled log2 fold change at or above 0.0002? T68S
not satisfied

Is scaled log2 fold change at least 0.0002? Consider D173H
not satisfied

Can Q176D be said to have scaled log2 fold change at or above 0.0002?
not satisfied

Exam item: decide whether the reported scaled log2 fold change for G44F is at least 0.0002.
not satisfied

// inclusive: scaled log2 fold change at least 0.0002? input: S62H
not satisfied

// inclusive: scaled log2 fold change at least 0.0002? input: G36S
satisfied

Does G143T have a reported scaled log2 fold change of at least 0.0002?
satisfied

Would you say V69Y shows scaled log2 fold change at minimum 0.0002?
satisfied

Assess whether reported scaled log2 fold change for G42C sits at 0.0002 or higher.
satisfied

# bool: scaled log2 fold change of E77N >= 0.0002
satisfied

// inclusive: scaled log2 fold change at least 0.0002? input: L9S
satisfied

Check this variant for scaled log2 fold change at or above 0.0002: N162Y
satisfied

Quick check: does I130W have scaled log2 fold change greater than or equal to 0.0002?
not satisfied

Given I154H , state whether its scaled log2 fold change is at least 0.0002.
satisfied

Check this variant for scaled log2 fold change at or above 0.0002: G36M
satisfied

Does the variant T131G have recorded scaled log2 fold change that is 0.0002 or more?
satisfied

Would you say R60I shows scaled log2 fold change at minimum 0.0002?
satisfied

Please indicate if the recorded scaled log2 fold change for E77F meets or exceeds 0.0002.
not satisfied

Record G76P ; criterion: scaled log2 fold change no lower than 0.0002. Met?
satisfied

Entry E107N : is its scaled log2 fold change no less than 0.0002?
satisfied
